measured target: UniProt:Q9QUQ5
Sequence (Q9QUQ5 whole entry): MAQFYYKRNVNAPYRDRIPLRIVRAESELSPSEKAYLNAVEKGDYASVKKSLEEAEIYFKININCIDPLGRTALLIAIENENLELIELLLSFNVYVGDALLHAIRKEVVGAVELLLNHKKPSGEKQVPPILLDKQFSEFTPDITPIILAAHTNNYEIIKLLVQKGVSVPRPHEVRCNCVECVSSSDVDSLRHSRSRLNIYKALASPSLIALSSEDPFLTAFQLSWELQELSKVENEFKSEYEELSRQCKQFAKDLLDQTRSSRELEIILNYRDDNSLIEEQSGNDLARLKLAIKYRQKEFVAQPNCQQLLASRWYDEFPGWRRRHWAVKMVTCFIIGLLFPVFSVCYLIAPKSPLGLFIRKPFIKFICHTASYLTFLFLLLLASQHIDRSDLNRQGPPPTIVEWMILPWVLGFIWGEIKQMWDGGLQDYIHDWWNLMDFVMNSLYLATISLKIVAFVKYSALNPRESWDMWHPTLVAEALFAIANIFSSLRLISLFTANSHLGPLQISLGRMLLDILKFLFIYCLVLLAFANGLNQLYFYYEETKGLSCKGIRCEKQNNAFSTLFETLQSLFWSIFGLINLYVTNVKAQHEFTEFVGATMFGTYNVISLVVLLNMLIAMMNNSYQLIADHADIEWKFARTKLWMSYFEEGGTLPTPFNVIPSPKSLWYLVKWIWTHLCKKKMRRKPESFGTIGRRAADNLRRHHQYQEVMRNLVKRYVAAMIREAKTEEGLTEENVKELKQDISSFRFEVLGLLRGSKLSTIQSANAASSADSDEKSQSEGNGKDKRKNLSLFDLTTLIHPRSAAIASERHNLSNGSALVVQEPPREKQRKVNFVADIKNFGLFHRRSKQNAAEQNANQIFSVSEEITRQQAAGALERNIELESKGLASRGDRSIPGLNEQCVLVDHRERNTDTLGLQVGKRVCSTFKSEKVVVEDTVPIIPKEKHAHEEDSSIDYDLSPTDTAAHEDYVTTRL
procedure summary: calcium entry via TRPC4 opening agents – cell-based, HEK293 TRPC4/mu-opioid, Fluo-4 calcium, dose response (AID 434937)
Assay type: functional
The source made the active and inactive calls. How the calls were made is not given here.
EC50 reference

Field: example entries. Status: answers known.
compound="COc1ccc(-c2nn(-c3ccccc3C)cc2CNC(C)c2cn(C)nc2C)cc1F (stereo not given)" recorded_metric=EC50 result="1680 nM (active)"
compound=COc1ccc(CNCCc2c[nH]c3ccccc23)c(OC)c1C recorded_metric=EC50 result="841 nM (active)"

Inquiry: // query EC50 value for entry CCCCC(c1nnnn1CC1CCCO1)N1CCN(Cc2ccccc2)CC1 (stereo not given)
Reply text: 4730 nM (active)

Inquiry: // query EC50 value for entry CC1CN(C(=O)c2ccc(NS(=O)(=O)c3ccc(C(C)(C)C)cc3)cc2)CC(C)O1 (stereo not given)
Reply text: 5960 nM (active)

Inquiry: // query EC50 value for entry Cc1ccc(C2(O)C[N+](c3ccccc3C)=C3SCCN32)cc1 (stereo not given)
Reply text: 376 nM (active)
